Recorded measurements of log10(IC50), one per entry
Biological target: DR1 (DRB1*0101) (Homo sapiens, UniProt P01903+P01911, A100R/D57E/F55L/F60I/F76Y/I96L/L162R/M171V/P40L/Q125E/R42F/V115G/Y59C)
Test: biochemical
Type: binding
No end group written: not given here.
property label: log10(IC50) (log10 of the value in nM)

residues="CWMIDSEVRPRFREL [Peptide 9014.0227]" numeric_value=2.88
residues="GTDYKLRLPASPETH [Peptide 9014.0095]" numeric_value=2.77
residues="GTDMKLRLLASPETH [Peptide 9014.0100]" numeric_value=1.11
residues="HQVVPALSVSKAKAL [Peptide 89.0169]" numeric_value=2.00
residues="ALSVSKAKALQAIEL [Peptide 89.0170]" numeric_value=1.92
residues="GTDMKLRLVASPETH [Peptide 9014.0104]" numeric_value=1.23
residues="ITDFGLARSLDIDET [Peptide 9014.0188]" numeric_value=1.84
residues="DWVMAIFGVNPTVAE [Peptide 89.0079]" numeric_value=1.76
residues="ITHIGHQVVPPMAVS [Peptide 90.0010]" numeric_value=1.70
residues="ITDIGLARLLDIDET [Peptide 9014.0177]" numeric_value=2.96
residues="KVAMLDDATHTCWTY [Peptide 90.0105]" numeric_value=2.40
residues="PHAFPFDKNGNPVYE [Peptide 90.0106]" numeric_value=2.71
residues="NCNSNTTPIVHLKGD [Peptide 1601.08]" numeric_value=4.06
residues="FIHFLQGAIISFVNS [Peptide 89.0088]" numeric_value=1.71
residues="PMCMMIEPPKLRSTA [Peptide 90.0034]" numeric_value=1.57
residues="CWMIDSELRPRFREL [Peptide 9014.0223]" numeric_value=2.64
residues="TVEVQFDGDICNTMH [Peptide 90.0167]" numeric_value=3.36
residues="KWFGSLAFLPESFDGDPA [Peptide 9014.0236]" numeric_value=2.65
residues="GTDWKLRLPASPETH [Peptide 9014.0094]" numeric_value=2.90
residues="DMKLRLVASPETHLD [Peptide 9014.0123]" numeric_value=1.45
residues="GQVIVCPASVSSNEV [Peptide 90.0016]" numeric_value=1.38
residues="IVHLKGDPNSLKCLR [Peptide 90.0255]" numeric_value=2.36
residues="KVFGSLAFLPESFDGDPA [Peptide 9014.0235]" numeric_value=2.83
residues="GTDMKLRLFASPETH [Peptide 9014.0097]" numeric_value=2.23
residues="CWMIDSEHRPRFREL [Peptide 9014.0221]" numeric_value=2.94
residues="LKRFLQGIPKKNCIL [Peptide 89.0016]" numeric_value=1.84
residues="AFQVIELQMALETLS [Peptide 89.0181]" numeric_value=3.49
residues="GKSLFGMSLMKFLQG [Peptide 89.0019]" numeric_value=1.23
residues="KHFGSLAFLPESFDGDPA [Peptide 9014.0232]" numeric_value=2.80
residues="RFHNIMGRWTGRCSE [Peptide 1543.60]" numeric_value=0.75
residues="ETELVEPLHPSGAMP [Peptide 9014.0151]" numeric_value=1.49
residues="EIYIIEEDTCTMVTG [Peptide 90.0203]" numeric_value=3.13
residues="GKSYFGMSLIQFLKG [Peptide 89.0075]" numeric_value=1.15
residues="LVQLKCPPLLITSNI [Peptide 89.0021]" numeric_value=1.86
residues="NGWFYVEAVIDRQTG [Peptide 90.0062]" numeric_value=2.20
residues="AYGISFMELVRPFKS [Peptide 89.0060]" numeric_value=2.81
residues="ETEKVEPLTPSGAMP [Peptide 9014.0145]" numeric_value=1.32
residues="HQVVPPMAVSKAKAC [Peptide 90.0012]" numeric_value=2.83
residues="SDEISFAGIVTKLPT [Peptide 1601.45]" numeric_value=2.71
residues="GVYYIKDGDTTYYVQ [Peptide 90.0216]" numeric_value=3.19
residues="EVHVGGQVIVCPASV [Peptide 90.0015]" numeric_value=3.61

###

Target: A2.1 HLA molecules (Homo sapiens, UniProt P04439, D140Y/D185E/D98H/E176V/E277Q/G131W/G231S/I119V/I121R/I166T/I218V/L300P/L318F/N151K/N90K/P208A/P217A/Q86G/Q94H/R138H/R169H/T345S)
Format: binding
Set-up: scale not given here
Mark each entry 1.0 if its A2 Bind. sits below 0.05, and 0.0 for all others.

residues=FMIAATYNFAV assigned_label=0.0
residues=LLGRNSFAV assigned_label=1.0
residues=ALPPASPSA assigned_label=0.0
residues=LMTLATWVGV assigned_label=0.0
residues=LLIAARIVEL assigned_label=0.0
residues=SLYNILSPFM assigned_label=1.0
residues=YLLLYFSPV assigned_label=0.0
residues=ALAETSYVKVL assigned_label=1.0
residues=WLLRGTSFV assigned_label=0.0
residues=SLYADSPSV assigned_label=0.0
residues=FLWGPRALA assigned_label=1.0
residues=YLYRLNFCL assigned_label=0.0
residues=QLWVTVYYGV assigned_label=1.0
residues=WLVTNGSYL assigned_label=1.0
residues=ALHLFKTTV assigned_label=1.0
residues=LLVPFVQWFA assigned_label=0.0
residues=ILCWGELMTL assigned_label=0.0
residues=CILESLFRA assigned_label=1.0
residues=LLFFWLDRSV assigned_label=0.0
residues=LLGANSFEV assigned_label=0.0
residues=LLLYYDYSL assigned_label=0.0

###

Target: A*3301 (Homo sapiens, UniProt P04439, A270S/D185E/E176V/E277Q/E87N/F33T/G231S/H175R/I121M/I218V/I322F/K168Q/K210R/L300P/L318F/M331R/P217A/Q86R/Q94H/R138Q/T323A/T345S/T97I/V358M/Y195H)
Assay: biochemical
Type: binding
No end group written: not given here.
property label: IC50

residues="FTAFLGAFK [Peptide 88.0362]" property_label=IC50 result="0.071 µM"
residues="ILYQSNPYPK [Peptide 9017.0198]" property_label=IC50 result="11 µM"
residues="QSNPYPEPK [Peptide 9017.0070]" property_label=IC50 result="> 20 µM"
residues="TVSATQLVK [Peptide 1589.08]" property_label=IC50 result="> 20 µM"
residues="RQRKIDWLIK [Peptide 9017.0247]" property_label=IC50 result="> 20 µM"
residues="TVHVYFDGNK [Peptide 1589.24]" property_label=IC50 result="> 20 µM"
residues="LTNILNVLK [Peptide 1587.02]" property_label=IC50 result="2.03 µM"
residues="VTIKIGGQIR [Peptide 1516.05]" property_label=IC50 result="> 20 µM"
residues="LLYGPANTGK [Peptide 1587.56]" property_label=IC50 result="14.5 µM"
residues="SFMELVRPFK [Peptide 88.0163]" property_label=IC50 result="0.0033 µM"
residues="ALFTAQEAK [Peptide 88.0323]" property_label=IC50 result="16.1 µM"
residues="RFHNIAGHYR [Peptide 78.0097]" property_label=IC50 result="0.099 µM"
residues="MVVLLLVRYK [Peptide 1587.04]" property_label=IC50 result="4.48 µM"
residues="GVLILALLR [Peptide 88.0338]" property_label=IC50 result="3.89 µM"
residues="NTKATLLYK [Peptide 88.0385]" property_label=IC50 result="0.168 µM"
residues="SVFQNLQVIK [Peptide 9012.0231]" property_label=IC50 result="6.22 µM"
residues="VVCTYSPALNK [Peptide 1556.35]" property_label=IC50 result="> 20 µM"
residues="GTMCRHYKR [Peptide 1587.34]" property_label=IC50 result="0.226 µM"
residues="CFFTRTWSR [Peptide 88.0382]" property_label=IC50 result="0.003 µM"
residues="VVQQLLMGA [Peptide 78.0338]" property_label=IC50 result="0.438 µM"
residues="GLYYWCDGEK [Peptide 88.0229]" property_label=IC50 result="> 20 µM"
residues="KQNPDIVIY [Peptide 1595.10]" property_label=IC50 result="> 20 µM"
residues="HLFGYSFYK [Peptide 76.0190]" property_label=IC50 result="0.033 µM"
residues="SLKCLRYRLK [Peptide 88.0217]" property_label=IC50 result="18.8 µM"
residues="GLVFGILIKR [Peptide 9012.0244]" property_label=IC50 result="2.64 µM"
residues="AFADLTVVYR [Peptide 78.0058]" property_label=IC50 result="0.249 µM"

Taken from patent US9340577B2.
